# Tested on: Trypanosoma brucei
# assayProtocol: DNDI: Inhibition of Human African Trypanosomiasis, SBRI 427, in vitro at 2 ug.mL-1
# Assay type: functional
About 390 (8.9%) of roughly 4,400 compounds showed an effect of 50% or more. The entries come from a sample that favours strong results as a whole.
valueType: % inhibition (%)
I only need the number, in %, no unit after it.

Check out these entries, answers already filled in.
compound: COc1cccc(Oc2ccc(/C(=N/O)NC3CCCCC3)cn2)c1
recordedResult: 98
//
compound: COc1ccc(CN/C(=N\O)c2cccnc2OCc2ccccc2)cc1
recordedResult: 10

Now take the following molecule into account.
Reading of % inhibition for Cc1cccc(Oc2ccc(/C(=N/O)NCC3CCCCC3)cn2)c1 with Trypanosoma brucei: 36
